B1: glmS ribozyme (parent)
chain: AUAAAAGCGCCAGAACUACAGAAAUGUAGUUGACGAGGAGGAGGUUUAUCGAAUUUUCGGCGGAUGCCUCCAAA

Variants of: B1
Test: self-cleavage kobs at 40 uM GlcN6P; higher = faster cleavage; RNA array
Settings: with glucosamine-6-phosphate
This sample holds only a part of the variants without activity.
The threshold is inclusive: self-cleavage kobs at 40 uM GlcN6P of exactly 0.0003 s⁻¹ counts as Satisfied; values below receive Not satisfied.

mutantLabel	classLabel
A48C G60U	Not satisfied
A14U C68U	Not satisfied
U57A G66U	Not satisfied
U47G A52U U69G	Not satisfied
U55C U56A	Not satisfied
A15C U54C	Not satisfied
C50U G59U	Not satisfied
G51A U54A U55A	Not satisfied
C8A U45A A53U	Not satisfied
G40A C50U U54C C68U	Not satisfied
C34G C50A	Not satisfied
U69G	Satisfied
G7U C70G C71G	Not satisfied
A28U	Satisfied
A12U C67U	Satisfied
G43U C68G	Satisfied
G40A G43A	Not satisfied
C8A G40C	Not satisfied
G29C U56G C70U	Not satisfied
C11G A53U	Not satisfied
C11U C16U C71U	Not satisfied
C16U G35A	Not satisfied

Where these numbers come from: the supplement of paper PMC7125110
